Where do these numbers come from? They come from PubChem BioAssay (EPA / NIEHS).

# Read-out: JUN Transcription Factor, JUN (gene 3725)
# experiment.notes: LTEA_HepaRG_JUN: Life Technologies and Expression Analysis (LTEA) Assay for JUN Transcription Factor using HepaRG (AID 2283513)
# setup.conditions: mRNA level, 48 h; actives raise or lower the signal
Calls of active or inactive are those of the source. The calls were made as follows: active = hit-call score of the fitted dose curve at least 0.9, where 1 is the maximum; inactive = score below 0.9.
Hi there, use one of these labels in your reply, thanks! True (active), False (inactive)

Example entries begin here.
compound	label
O=C1NC(=O)C(c2ccccc2)(c2ccccc2)N1	False
CN(C)CCCN(C)CCCN(C)C	False
CCCCCCC(C=O)=Cc1ccccc1	False
CCCCC(CC)COC(=O)CCCCCCCC(=O)OCC(CC)CCCC (configuration not stated)	False
CCCCC(CC)COP(=O)(OCC(CC)CCCC)OCC(CC)CCCC (configuration not stated)	False

Data request: Hi, sorry to bother you, what did the test record for "CCCCOC(=O)CCCCC(=O)OCCCC" ?
Data returned: False

Data request: Field: outcome | Entry: "O=C1OC(c2ccc(O)cc2)(c2ccc(O)cc2)c2ccccc21"
Data returned: False

Data request: I'd appreciate the recorded outcome for CC(=O)OC1CC(C)OC(C)O1 (configuration not stated) from this test.
Data returned: False

Data request: Which outcome did this test record for the compound "CN(C)C(=O)NC1(c2ccccc2)CCN(CC[C@@]2(c3ccc(F)c(F)c3)CN(C(=O)c3ccccc3)CCO2)CC1" ?
Data returned: False

Data request: Check the results log: what was the call for "CN(C)C(=O)NC1(c2ccccc2)CCN(CCC[C@]2(c3ccc(Cl)c(Cl)c3)CCCN(C(=O)c3ccccc3)C2)CC1" ?
Data returned: True

Data request: Please share the test call associated with "C=CCCCCCCCCCCCC" .
Data returned: False

Data request: For "OCC(CO)n1cnc(-c2ccc(F)cc2)c1-c1ccnc(Oc2ccccc2)n1" , what call appears in the results of this test?
Data returned: False

Data request: Identify the outcome logged in this assay for the compound shown: "Cc1cc(Cc2ccc(N)c(C)c2)ccc1N"
Data returned: False

Data request: Hello, I am checking results. What call was entered for "CCc1nc(N)nc(N)c1-c1ccc(Cl)cc1" ?
Data returned: False

Data request: Tell me the assay call for C#CC(O)C(CC)CCCC (configuration not stated) please.
Data returned: False

Data request: # lookup: test call for "Cc1cc(SC2=C(O)C[C@@](CCc3ccc(N)cc3)(C(C)C)OC2=O)c(C(C)(C)C)cc1CO"
Data returned: False

Data request: Just curious, what result did "CCCCCCCC(=O)OC" get here?
Data returned: False

Data request: Per the assay record, what outcome was assigned to CCCCCCC(CCCCCCCCCCC(=O)OCC(COC(C)=O)OC(C)=O)OC(C)=O (configuration not stated) ?
Data returned: False

Data request: What call does the record list for "CC(=O)O" ?
Data returned: False

Data request: What call does the record list for CC(COCC(C)OC(=O)c1ccccc1)OC(=O)c1ccccc1 (configuration not stated) ?
Data returned: False

Data request: Hi, sorry to bother you, what did the test record for "c1ccc2occc2c1" ?
Data returned: False

Data request: Dear colleague, could you share the recorded outcome for "CCCC(=O)O" when you have a moment?
Data returned: False
